Biological target: OR4S2 (Homo sapiens, UniProt Q8NH73, A290K)
Sequence (Q8NH73 with tags, fused parts or gaps A290K): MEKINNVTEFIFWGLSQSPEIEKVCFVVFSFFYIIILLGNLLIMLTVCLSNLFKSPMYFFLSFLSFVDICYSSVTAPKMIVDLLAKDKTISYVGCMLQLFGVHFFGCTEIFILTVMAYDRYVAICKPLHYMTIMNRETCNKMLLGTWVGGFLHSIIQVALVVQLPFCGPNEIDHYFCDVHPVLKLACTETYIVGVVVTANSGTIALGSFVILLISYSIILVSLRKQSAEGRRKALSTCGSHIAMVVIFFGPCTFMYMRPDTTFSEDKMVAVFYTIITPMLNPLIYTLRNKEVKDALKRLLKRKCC
Test: cell-based
Details: changed C-term SEQ ID NO: 86; read-out: Potency EC50
measurement.name: EC50 (µM)

{"smiles.text": "c1ccc2scnc2c1", "val": 104}

----------
Target: OR2J2 (Homo sapiens, UniProt O76002, A146V/A218T/A302I/G300K/H297E/H74Y)
Construct: expressed in transfected cells; host or cells: HEK293T stably expressing human RTP1S(V227I) and RTP2(L220R) (general method)
Sequence (O76002 with tags, fused parts or gaps H74Y/A146V/A218T/H297E/G300K/A302I): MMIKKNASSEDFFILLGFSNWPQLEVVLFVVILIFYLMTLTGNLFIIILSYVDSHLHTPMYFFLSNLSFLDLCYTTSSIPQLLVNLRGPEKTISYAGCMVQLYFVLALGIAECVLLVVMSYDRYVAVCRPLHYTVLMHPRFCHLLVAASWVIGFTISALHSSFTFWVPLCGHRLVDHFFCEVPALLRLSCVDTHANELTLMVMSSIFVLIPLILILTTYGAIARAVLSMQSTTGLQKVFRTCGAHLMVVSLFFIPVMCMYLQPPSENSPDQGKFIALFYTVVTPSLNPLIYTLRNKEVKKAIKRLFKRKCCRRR
Test: Luciferase assay with odorant mixtures/single ingredients, OR with SEQ ID NO: 221
Format: cell-based
Please respond with MET when measured EC2 (concentration for 2-fold luciferase induction) is strictly beneath 10 µM, and with NOT MET in all other cases.

{"compound": "CCCCCCCCC1CCC(=O)O1 (centres unmarked) [Dodecalactone gamma]", "label": "MET"}
{"compound": "CCCCCCCC1CCC(=O)O1 (centres unmarked) [Undecalactone gamma]", "label": "MET"}
{"compound": "CCCCCC1CCC(=O)O1 (centres unmarked) [Nonalactone gamma]", "label": "NOT MET"}
{"compound": "CCCCCC1CCCC(=O)O1 (centres unmarked) [Decalactone delta]", "label": "NOT MET"}
{"compound": "CCCCCCC1CCC(=O)O1 (centres unmarked) [Decalactone gamma]", "label": "MET"}
{"compound": "CCCCCCCC1CCCC(=O)O1 (centres unmarked) [Dodecalactone delta]", "label": "NOT MET"}
{"compound": "CCCCC1CCC(=O)O1 (centres unmarked) [Octalactone gamma]", "label": "NOT MET"}

Value source: patent EP4664463A1
